Tested on: DLD-1
assay: NCI tumour cell line growth inhibition, 48 h
Active and inactive are the calls of the source. Cut-off read from the data, not from the text of the source: active = GI50 up to about 1.1 µM and inactive = higher.
# GI50 values compiled below

Below are worked cases with known answers.
C[C@@H]1CC2(N=CCS2)[C@]2(O)O[C@@H]3C[C@@]4(C)[C@H](C[C@H]3O[C@@H]2O1)C[C@H]1O[C@]12[C@@H]4[C@H](O)C(=O)[C@]1(C)C(C3=CC(=O)OC3)CC[C@]21O (some centres not stated)
< 0.01 µM (active)
C[C@H]1C[C@@H]2[C@H]([C@@H](O)C[C@@]3(C)[C@H]2CC[C@]3(O)C(=O)CO)[C@@]2(C)C=CC(=O)C=C12
> 100 µM (inactive)
O=C1c2ccccc2C2(O)N(c3ccccc3)C(=S)N(c3ccccc3)C12O (configuration not stated)
> 100 µM (inactive)
COC1C=COC2(C)Oc3c(C)c(O)c4c(O)c(c(/C=N/N5CCN(N)CC5)c(O)c4c3C2=O)NC(=O)C(C)=CC=CC(C)C(O)C(C)C(O)C(C)C(OC(C)=O)C1C (configuration not stated)
82.6 µM (inactive)
COC(=O)C(CC(=O)c1c[nH]c2ccccc12)c1c[nH]c2ccccc12 (configuration not stated)
30.8 µM (inactive)
CN(C)/C(=N/C(=O)Nc1ccccc1)SCc1ccccc1
65.3 µM (inactive)
COc1cc2c[n+](C)c3c4cc(OC)c(OC(C)C)cc4ccc3c2cc1OC
> 100 µM (inactive)
O=C(O)CC12C3C4C5C3C1C5C42 (configuration not stated)
> 100 µM (inactive)

Exercise: Endpoint output: GI50 of `CCCCN(CCCC)C(=O)/C(CC(=O)c1cccc2ccccc12)=N\NC(=O)c1cc2ccccc2cc1O` . Value?
Solution: 23.4 µM (inactive)

Exercise: What value of measured GI50 is listed for CCCOc1nc(N)c2cnn(C3CCCCO3)c2n1 (configuration not stated) ?
Solution: > 100 µM (inactive)

Exercise: For the compound shown here, COc1ncn(C2C=C(CO)C(O)C2O)c(=O)n1 (configuration not stated) , give the reported GI50.
Solution: > 100 µM (inactive)

Exercise: GI50 lookup needed for CCOC(=O)C(=CNC(Cc1c[nH]c2ccccc12)C(=O)OC)C(=O)OCC (configuration not stated) , thanks.
Solution: > 100 µM (inactive)

Exercise: Fill in: GI50 of `CC(C)(C)[Si](C)(C)O/N=C\c1cccc(O[Si](C)(C)C(C)(C)C)c1` is ___
Solution: 17.8 µM (inactive)
